Origin of values: the supplement of paper PMC12645437

Target: T1, CRBN, Q96SW2;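 further: pooled lentiviral library of zinc finger degron-EGFP fusions in mCherry-positive Jurkat cells, FACS-sorted after compound exposure, with degron abundance counted by next-generation sequencing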
T1 chain: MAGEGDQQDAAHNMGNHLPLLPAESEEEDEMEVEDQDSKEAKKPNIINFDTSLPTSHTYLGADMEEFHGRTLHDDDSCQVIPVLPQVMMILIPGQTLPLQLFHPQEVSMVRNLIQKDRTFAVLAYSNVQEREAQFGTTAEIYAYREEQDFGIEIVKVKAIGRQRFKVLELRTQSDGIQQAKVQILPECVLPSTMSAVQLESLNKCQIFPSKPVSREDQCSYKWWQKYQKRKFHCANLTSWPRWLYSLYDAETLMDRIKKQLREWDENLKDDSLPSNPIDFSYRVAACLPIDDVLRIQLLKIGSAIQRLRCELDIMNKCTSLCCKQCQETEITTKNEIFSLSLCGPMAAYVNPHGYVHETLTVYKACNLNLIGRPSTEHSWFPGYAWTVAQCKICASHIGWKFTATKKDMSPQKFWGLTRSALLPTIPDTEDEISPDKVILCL
Assay: log2 fold change of degron read counts, EGFP-low vs EGFP+ sorted cells (limma voom), compound-induced degradation; higher = more compound-induced degradation of the degron-EGFP fusion; degrons are variants of IKZF1/3 zinc finger 2; compound dose not given here
Conditions: Jurkat; 18 h; compound: compound 33 (diphenyl IMiD analogue)
Whole data set: some 8,300 sequences, median “log2 fold change of degron read counts, EGFP-low vs EGFP+ sorted cells (limma voom), compound-induced degradation” near -1.1, cut for the highest 2% near 3.2. The list comes from a sample in which the highest values are over-represented; it also holds close analogues and randomly drawn sequences.
Class True: log2 fold change of degron read counts at least 2. Class False: log2 fold change of degron read counts below 2.

1) LKCNQCGFCCTQKGNLLRHIKL [46L_47K_49N_50Q_52G_53F_54C_55C_67L_, Q9UKT9] = False
2) LQCPICGFYCTQKGNLLRHIKL [46L_47Q_49P_50I_52G_53F_54Y_55C_67L_, Q9UKT9] = True
3) FWCEICGAVFTQKGNLLRHIKL [46F_47W_49E_50I_52G_53A_54V_55F_67L_, Q9UKT9] = True

Attention now shifts to the item below.
Input line: Hi, just wondering whether FFCEICGAAFTQKGNLLRHIKL [46F_47F_49E_50I_52G_53A_54A_55F_67L_, Q9UKT9] shows log2 fold change of degron read counts of 2 or higher.
Output line: True
